- Tested on: Rattus norvegicus
- assay.procedure: Analgesic activity in Wistar albino rat […] assessed as reaction time for tail withdrawal at 100 mg/kg, po after 120 mins by tail flick method
- Type: functional
// assign T if Activity falls strictly below 7 s, else F (ties count as F)

Use the examples below as a reference point.
[
  {
    "molecule": "Cc1ccc2c(Cc3nn4c(/C=N/O)c(-c5ccc(Cl)cc5)nc4s3)coc2c1",
    "class.name": "T"
  },
  {
    "molecule": "Cc1ccc2c(Cc3nn4c(CO)c(-c5ccc(Br)cc5)nc4s3)coc2c1",
    "class.name": "T"
  },
  {
    "molecule": "Cc1ccc2c(Cc3nn4cc(-c5ccc(Cl)cc5)nc4s3)coc2c1",
    "class.name": "F"
  }
]

Query :: Does the reported Activity of `Cc1ccc2c(Cc3nn4c(C=O)c(-c5ccc(Br)cc5)nc4s3)coc2c1` stay below 7 s?
Result :: T

Query :: Does the reported Activity of `Cc1ccc2c(Cc3nn4c(CN5CCOCC5)c(-c5ccc([N+](=O)[O-])cc5)nc4s3)coc2c1` stay below 7 s?
Result :: F

Query :: Does the reported Activity of `Cc1ccc2c(Cc3nn4cc(-c5ccc([N+](=O)[O-])cc5)nc4s3)coc2c1` stay below 7 s?
Result :: F

Query :: Does the reported Activity of `Cc1ccc2c(Cc3nn4c(C=O)c(-c5ccc(Cl)cc5)nc4s3)coc2c1` stay below 7 s?
Result :: T

Query :: Does the reported Activity of `Cc1ccc2c(Cc3nn4c(C#N)c(-c5ccc(Cl)cc5)nc4s3)coc2c1` stay below 7 s?
Result :: T

Query :: Does the reported Activity of CS(=O)(=O)Nc1ccc([N+](=O)[O-])cc1Oc1ccccc1 [NIMESULIDE] stay below 7 s?
Result :: F

Query :: Does the reported Activity of `Cc1ccc2c(Cc3nn4cc(-c5ccc(Br)cc5)nc4s3)coc2c1` stay below 7 s?
Result :: T

====

- Tested on: Rattus norvegicus
- assay.procedure: Antiinflammatory activity in Wistar albino rat assessed as inhibition of carrageenan-induced paw oedema at 100 mg/kg, po measured 2 hrs after carrageenan challenge
- Assay type: functional
endpoint.name: inhibition in vivo at 100 mg/kg (%)
I only need the number, in %, no unit after it.

Before answering, review these 2 worked examples.
[
  {
    "compound.structure.string": "Cc1ccc2c(Cc3nn4c(/C=N/O)c(-c5ccc(Cl)cc5)nc4s3)coc2c1",
    "inhibition in vivo at 100 mg/kg (%)": 11.2
  },
  {
    "compound.structure.string": "Cc1ccc2c(Cc3nn4c(CO)c(-c5ccc(Br)cc5)nc4s3)coc2c1",
    "inhibition in vivo at 100 mg/kg (%)": 13.1
  }
]

Read the next record carefully.
Query :: Recall and state the measured inhibition in vivo at 100 mg/kg for `Cc1ccc2c(Cc3nn4c(C=O)c(-c5ccc(Br)cc5)nc4s3)coc2c1` .
Result :: 11.2

====

- System: Rattus norvegicus
- assay.procedure: Analgesic activity in Wistar albino rat […] assessed as reaction time for tail withdrawal at 100 mg/kg, po after 120 mins by tail flick method
- Assay type: functional
endpoint.name: Activity (s)
I only need the number, in s, no unit after it.

Before answering, review these 2 worked examples.
[
  {
    "compound.structure.string": "Cc1ccc2c(Cc3nn4c(CN5CCOCC5)c(-c5ccc(Cl)cc5)nc4s3)coc2c1",
    "u": "s",
    "Activity": 6.767
  },
  {
    "compound.structure.string": "Cc1ccc2c(Cc3nn4c(CN5CCOCC5)c(-c5ccc(Br)cc5)nc4s3)coc2c1",
    "u": "s",
    "Activity": 6.45
  }
]

Query :: Recall and state the measured Activity for `Cc1ccc2c(Cc3nn4c(CO)c(-c5ccc(Cl)cc5)nc4s3)coc2c1` .
Result :: 5.467
